# system: T1, full-length human OX40 expressed on HuT78 cells (HuT78/OX40) (human, UniProt P43489 29-277)
# T1 sequence: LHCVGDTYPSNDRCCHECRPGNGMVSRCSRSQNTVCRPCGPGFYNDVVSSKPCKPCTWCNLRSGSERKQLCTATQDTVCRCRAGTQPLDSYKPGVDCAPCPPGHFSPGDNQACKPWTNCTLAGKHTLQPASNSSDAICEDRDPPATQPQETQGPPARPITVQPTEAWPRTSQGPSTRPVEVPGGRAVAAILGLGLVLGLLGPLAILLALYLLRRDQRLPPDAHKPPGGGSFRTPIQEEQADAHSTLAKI
# test_name: FACS; cells not named on the sheet, HuT78/OX40 cells as in Example 5
Listing of recorded Top(MFI) by entry.
In your response, the unit should come after the numeric value.

Below are worked cases with known answers.
# binder, Top(MFI)
rows = [
    ("445-2 with Y27G in the heavy chain and S24R in the light chain (antibody, human IgG1, V domains shown) VH: QVQLVQSGAEVKKPGSSVKVSCKASGGKFTSYIIHWVRQAPGQGLEWMGYINPYNEGTRYAQKFQGRVTLTADKSTSTAYMELSSLRSEDTAVYYCARGYYGSSYAMDYWGQGTTVTVSS VL: DIQMTQSPSSLSASVGDRVTITCRASQGISNYLNWYQQKPGKAIKLLIYDASTLYSGVPSRFSGSGSGTDFTLTISSLQPEDFATYYCQQYSKLPYTFGGGTKVEIK", "630 MFI"),
    ("445-3(Q62E)-3(S24R) (antibody, V domains shown) VH: QVQLVQSGAEVKKPGSSVKVSCKASGYKFTSYIIHWVRQAPGQGLEWMGYINPYNEGTRYAEKFQGRVTLTADKSTSTAYMELSSLRSEDTAVYYCARGYYGSSYAMDYWGQGTTVTVSS VL: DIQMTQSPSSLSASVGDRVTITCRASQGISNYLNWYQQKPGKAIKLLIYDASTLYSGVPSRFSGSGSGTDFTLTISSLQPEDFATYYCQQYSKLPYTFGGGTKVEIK", "760 MFI"),
]

Query: # input binder: 445-3(A61N-K28R)-3 (antibody, V domains shown) VH: QVQLVQSGAEVKKPGSSVKVSCKASGYRFTSYIIHWVRQAPGQGLEWMGYINPYNEGTRYNQKFQGRVTLTADKSTSTAYMELSSLRSEDTAVYYCARGYYGSSYAMDYWGQGTTVTVSS VL: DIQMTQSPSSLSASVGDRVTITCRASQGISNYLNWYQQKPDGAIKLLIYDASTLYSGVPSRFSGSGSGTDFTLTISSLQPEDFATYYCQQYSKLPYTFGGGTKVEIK ; wanted: its Top(MFI)
Reply: 1080 MFI
